Data credit: patent US20190022162A1

- PROTOCOL: Cell counting (Trypan blue, Neubauer chamber), HDF cells
- Assay type: cell-based, human
- CONDITION NOTES: human, human dermal fibroblasts (HDF); Ber 2.154 μM, 48 h; read-out: percentage of viable cells compared to the control
- Description: […] The percentage of viable cells compared to the control was determined by the ratio between the number of treated cells and the number of untreated cells.
VALUE TYPE: viability at 48 h, 2.154 μM
Form entry: enter the amount, then its unit.

Ask | Fill in viability at 48 h, 2.154 μM for record COc1ccc2cc3[n+](cc2c1OC)CCc1cc2c(cc1-3)OCO2
Reply | 70.4%

====

- PROTOCOL: Cell counting (Trypan blue, Neubauer chamber), HDF cells
- Type: cell-based, human
- CONDITION NOTES: human, human dermal fibroblasts (HDF); direct administration; decrease up to; read-out: reduction in the percentage of viable HDF cells
- Method: […] The percentage of viable cells compared to the control was determined by the ratio between the number of treated cells and the number of untreated cells.
VALUE TYPE: cytotoxicity at 48 h

Ask | Fill in cytotoxicity at 48 h for record Cn1nnc2c(C(N)=O)ncn2c1=O [temozolomide, reference compound]
Reply | 60 to 70%

====

- PROTOCOL: Cell counting (Trypan blue, Neubauer chamber), HDF cells
- Type: cell-based, human
- CONDITION NOTES: human, human dermal fibroblasts (HDF); Ber 10 μM, 48 h; read-out: percentage of viable cells compared to the control
VALUE TYPE: viability at 48 h, 10 μM (%)
Report the value in % with no unit label.

Ask | Fill in viability at 48 h, 10 μM for record COc1ccc2cc3[n+](cc2c1OC)CCc1cc2c(cc1-3)OCO2
Reply | 67.3
